- test_system: ECF27_1331
Values of fold repression strictly less than 10 map to condition met, and values of at least 10 map to condition not met.

[
  {
    "binder": "AS25_1645 (protein) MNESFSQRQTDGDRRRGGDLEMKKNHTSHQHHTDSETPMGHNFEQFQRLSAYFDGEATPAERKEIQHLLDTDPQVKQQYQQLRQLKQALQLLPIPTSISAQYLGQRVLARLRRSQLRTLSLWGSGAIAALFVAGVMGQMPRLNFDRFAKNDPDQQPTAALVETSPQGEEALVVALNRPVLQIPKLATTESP",
    "assigned_category": "condition not met"
  },
  {
    "binder": "AS15_524 (protein) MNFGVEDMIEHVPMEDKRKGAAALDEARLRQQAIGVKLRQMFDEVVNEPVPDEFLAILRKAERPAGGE",
    "assigned_category": "condition not met"
  },
  {
    "binder": "AS22_1147 (protein) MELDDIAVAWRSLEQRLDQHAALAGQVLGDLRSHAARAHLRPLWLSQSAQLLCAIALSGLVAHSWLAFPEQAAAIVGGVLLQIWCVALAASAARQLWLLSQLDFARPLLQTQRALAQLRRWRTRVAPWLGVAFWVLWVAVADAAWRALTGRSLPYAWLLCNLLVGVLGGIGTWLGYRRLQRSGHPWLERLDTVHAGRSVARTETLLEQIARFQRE",
    "assigned_category": "condition met"
  },
  {
    "binder": "AS16_3622 (protein) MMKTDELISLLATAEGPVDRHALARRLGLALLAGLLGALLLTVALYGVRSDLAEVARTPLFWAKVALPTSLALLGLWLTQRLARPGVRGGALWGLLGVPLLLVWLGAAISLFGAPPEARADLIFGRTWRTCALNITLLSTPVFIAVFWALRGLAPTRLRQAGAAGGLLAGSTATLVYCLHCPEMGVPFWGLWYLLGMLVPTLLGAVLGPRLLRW",
    "assigned_category": "condition met"
  },
  {
    "binder": "AS22_4450 (protein) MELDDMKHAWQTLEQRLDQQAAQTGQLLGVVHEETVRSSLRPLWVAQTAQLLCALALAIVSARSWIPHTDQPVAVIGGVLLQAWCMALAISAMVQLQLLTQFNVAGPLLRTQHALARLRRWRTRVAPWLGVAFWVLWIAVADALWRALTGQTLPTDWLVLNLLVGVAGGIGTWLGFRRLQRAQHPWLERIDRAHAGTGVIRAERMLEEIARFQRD",
    "assigned_category": "condition met"
  },
  {
    "binder": "AS33_375 (protein) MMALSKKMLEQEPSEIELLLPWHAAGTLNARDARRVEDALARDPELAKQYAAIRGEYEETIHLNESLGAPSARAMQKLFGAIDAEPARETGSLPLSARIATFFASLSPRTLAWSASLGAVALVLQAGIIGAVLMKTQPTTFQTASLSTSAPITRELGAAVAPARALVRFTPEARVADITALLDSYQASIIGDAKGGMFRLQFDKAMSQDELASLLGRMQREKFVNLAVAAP",
    "assigned_category": "condition not met"
  },
  {
    "binder": "AS30_35 (protein) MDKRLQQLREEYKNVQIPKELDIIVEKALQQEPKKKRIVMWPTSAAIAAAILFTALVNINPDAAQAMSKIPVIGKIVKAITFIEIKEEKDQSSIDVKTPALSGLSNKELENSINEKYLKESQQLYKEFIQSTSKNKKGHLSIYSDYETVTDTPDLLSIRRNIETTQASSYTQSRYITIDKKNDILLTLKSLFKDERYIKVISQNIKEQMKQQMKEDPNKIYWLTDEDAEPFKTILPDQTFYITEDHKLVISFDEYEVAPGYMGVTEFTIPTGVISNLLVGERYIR",
    "assigned_category": "condition met"
  }
]
